Assay Overview: Mouse pharmacokinetics
Run Parameters: in vivo, iv, 2 mg/kg
Catalogue of compounds with associated clearance at 24 h

{"columns": ["Smiles Record", "clearance at 24 h"],
 "data": [
  ["Cc1ccccc1-c1nc2c(N)ncn(Cc3c(Cl)cccc3Cl)c-2n1", "69 mL/min/kg"],
  ["Cc1ccccc1-c1nc2c(N)ncn(Cc3c(Cl)cncc3Cl)c-2n1", "103 mL/min/kg"],
  ["Nc1ncn(Cc2c(Cl)cncc2Cl)c2ncnc1-2", "18 mL/min/kg"],
  ["Nc1ncn(Cc2c(Cl)cccc2Cl)c2ncnc1-2", "5.8 mL/min/kg"]
]}
